Attribution: patent US12583839B2

# System Under Test: PD-1/PD-L1 (Homo sapiens)
# Construct: 60535 (PD-1/NFAT-Reporter-Jurkat); host or cells: CHO cells expressing PD-L1; Jurkat cells expressing PD-1
# Sequence (Q9NZQ7 19-290): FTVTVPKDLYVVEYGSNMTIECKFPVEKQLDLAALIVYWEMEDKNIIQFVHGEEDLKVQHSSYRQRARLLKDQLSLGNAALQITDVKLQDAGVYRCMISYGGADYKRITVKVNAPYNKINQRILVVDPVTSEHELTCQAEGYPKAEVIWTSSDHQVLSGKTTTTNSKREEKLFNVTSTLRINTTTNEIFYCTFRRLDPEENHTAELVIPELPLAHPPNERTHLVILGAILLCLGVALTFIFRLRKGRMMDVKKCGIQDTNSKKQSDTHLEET
# Method Description: Detection of biological activity of PD-1/PD-L1 signaling inhibition at the cellular level (NFAT luciferase reporter, PD-1/NFAT-Reporter-Jurkat cells co-cultured with TCR activator/PD-L1-CHO cells)
# Assay type: cell-based
# Experimental Setup: PD-1/NFAT-Reporter-Jurkat + TCR activator/PD-L1-CHO co-culture, 6 hours; Atezolizumab as positive control
# Experimental: Detection of Biological Activity of PD-1/PD-L1 Signaling Inhibition at the Cellular Level This detection method is used for evaluating the biological activity of the compounds described in the present invention at the cellular level. […] According to the above detection method, the compounds of the present invention were evaluated for their biological activity at the cellular level, and the activity results are shown in the following table.
pEC50: −log10 of the molar value.
Endpoint Label: pEC50

{"Compound": "COc1cc(-c2cccc(-c3cccc4c3cnn4Cc3cc(OC)c(CN(C)C4CCC(/C=C/C(=O)O)CC4)cc3Cl)c2Cl)ccc1CNC[C@@H]1CCC(=O)N1 (stereo partly drawn) [Compound 120]", "Endpoint Label": "pEC50", "Number": 7.49}
{"Compound": "CCOc1cc(Cn2ncc3c(-c4cccc(-c5ccc(CNC[C@@H]6CCC(=O)N6)c(OC)c5)c4Cl)cccc32)c(Cl)cc1CN(C)C[C@H]1CC[C@H](C(=O)O)CC1 [Compound 124]", "Endpoint Label": "pEC50", "Number": 7.04}
{"Compound": "COc1cc(-c2cccc(-c3cccc4c3cnn4Cc3cc(OC)c(CN(C)[C@H]4C[C@H](C(=O)O)C4)cc3Cl)c2Cl)ccc1CNC[C@@H]1CCC(=O)N1 [Compound 93]", "Endpoint Label": "pEC50", "Number": 7.68}

====

# System Under Test: PD-1/PD-L1 (Homo sapiens)
# Construct: 60535 (PD-1/NFAT-Reporter-Jurkat); Jurkat cells expressing PD-1
# Method Description: Detection of biological activity of PD-1/PD-L1 signaling inhibition at the cellular level (NFAT luciferase reporter, PD-1/NFAT-Reporter-Jurkat cells co-cultured with TCR activator/PD-L1-CHO cells)
# Experimental Setup: PD-1/NFAT-Reporter-Jurkat + TCR activator/PD-L1-CHO co-culture, 6 hours; Atezolizumab as positive control
Endpoint Label: EC50 (µM)

{"Mol": "COc1cc(Cn2ncc3c(-c4cccc(-c5cc(F)c(CNC[C@@H]6CCC(=O)N6)c(OC)c5)c4Cl)cccc32)c(Cl)cc1CN(CCO)[C@H]1CC[C@H](C(=O)O)CC1", "Number": 0.04}
{"Mol": "COc1cc(Cn2ncc3c(-c4cccc(-c5cnc(CNC[C@@H]6CCC(=O)N6)c(OC)n5)c4C)cccc32)c(Cl)cc1CN(C)C12CCC(C(=O)O)(CC1)CC2", "Number": 0.265}
{"Mol": "COc1cc(-c2cccc(-c3cccc4c3cnn4Cc3cc(N)c(CN(C)[C@H]4CC[C@H](C(=O)O)CC4)cc3Cl)c2Cl)cc(F)c1CNC[C@@H]1CCC(=O)N1", "Number": 0.222}
{"Mol": "COc1cc(-c2cccc(-c3cccc4c3cnn4Cc3nc(OC)c(CN(C)[C@H]4CC[C@H](C(=O)O)CC4)cc3Cl)c2Cl)ccc1CNC[C@@H]1CCC(=O)N1", "Number": 0.063}
{"Mol": "COc1cc(Cn2ncc3c(-c4cccc(-c5ccc(CNC[C@@H]6CCC(=O)N6)c(OC)n5)c4Cl)cccc32)c(Cl)cc1CN(C)[C@H]1CC[C@H](C(=O)O)CC1", "Number": 0.056}
{"Mol": "COc1cc(-c2cccc(-c3cccc4c3cnn4Cc3cc(OC)c(CN4CC[C@@H](C(=O)O)C4)cc3Cl)c2C)ccc1CNC[C@@H]1CCC(=O)N1", "Number": 0.15}
{"Mol": "COc1cc(-c2cccc(-c3cccc4c3cnn4Cc3cc(OCC(=O)O)c(CN(C)C[C@H]4CC[C@H](C(=O)O)CC4)cc3Cl)c2Cl)ccc1CNC[C@@H]1CCC(=O)N1", "Number": 0.391}
